- SYSTEM: FGFR1 kinase (Homo sapiens, UniProt P11362)
- Sequence (P11362 22-822): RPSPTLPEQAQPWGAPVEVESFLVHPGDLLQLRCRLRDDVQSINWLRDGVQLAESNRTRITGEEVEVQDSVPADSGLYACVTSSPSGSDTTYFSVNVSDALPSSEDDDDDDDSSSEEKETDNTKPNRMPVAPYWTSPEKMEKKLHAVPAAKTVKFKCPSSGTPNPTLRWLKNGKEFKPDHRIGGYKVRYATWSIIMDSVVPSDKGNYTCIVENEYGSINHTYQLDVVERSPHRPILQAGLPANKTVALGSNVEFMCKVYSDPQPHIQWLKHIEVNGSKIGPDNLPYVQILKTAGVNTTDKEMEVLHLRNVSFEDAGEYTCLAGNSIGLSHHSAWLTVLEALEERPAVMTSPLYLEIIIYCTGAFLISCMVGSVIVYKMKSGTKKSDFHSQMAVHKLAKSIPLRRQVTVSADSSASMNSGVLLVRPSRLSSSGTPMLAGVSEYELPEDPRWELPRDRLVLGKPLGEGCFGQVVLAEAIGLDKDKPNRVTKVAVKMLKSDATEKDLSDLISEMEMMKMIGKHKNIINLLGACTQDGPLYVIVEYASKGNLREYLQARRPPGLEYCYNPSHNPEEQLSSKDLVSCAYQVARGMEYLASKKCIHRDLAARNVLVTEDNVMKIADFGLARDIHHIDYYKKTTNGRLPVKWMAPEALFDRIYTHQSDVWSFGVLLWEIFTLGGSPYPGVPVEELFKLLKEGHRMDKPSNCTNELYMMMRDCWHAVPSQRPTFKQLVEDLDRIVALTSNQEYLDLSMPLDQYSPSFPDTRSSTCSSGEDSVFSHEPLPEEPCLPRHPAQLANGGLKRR
- ASSAY METHOD TEXT: Kinase assay (using Caliper technology)
- Format: biochemical
- TEST SETTINGS: FGFR1 kinase, Caliper; upper bound of bin; read-out: IC50
pIC50: −log10 of the molar value. Structures can show the parent of a compound that is named as a salt.
QUANTITY: pIC50

>>> result("Cc1cc(CNc2nccc(Nc3cc(OCc4cccc(C(F)(F)F)c4)[nH]n3)n2)on1 [Example 95, hydrochloride]")
"> 5.00"

For reference, reported pIC50 for Cc1cc(CNc2nccc(Nc3cc(OCc4cccc(C(=O)N5CCOCC5)c4)[nH]n3)n2)on1 [Example 90] stands at > 5.00

For reference, reported pIC50 for Cc1cc(CNc2nccc(Nc3cc(OCc4cccc(C(=O)O)c4)[nH]n3)n2)on1 [Example 98] stands at > 5.00

For reference, reported pIC50 for NC(=O)c1cc(CNc2nccc(Nc3cc(CCc4ccccc4)n[nH]3)n2)on1 [Example 50] stands at > 6.00

For reference, reported pIC50 for Cc1cc(CNc2nccc(Nc3cc(CCc4cccnc4)[nH]n3)n2)on1 [Example 115] stands at > 6.00

For reference, reported pIC50 for COc1ccc(CCc2cc(Nc3ccnc(NCc4cc(C)no4)n3)n[nH]2)c(C)c1 [Example 47] stands at > 6.00

For reference, reported pIC50 for COCCCc1cc(Nc2ccnc(NCc3cc(C4CCC4)no3)n2)n[nH]1 [Example 23] stands at > 6.00

For reference, reported pIC50 for Cc1cc(CNc2nccc(Nc3cc(CCc4cccc(Br)c4)[nH]n3)n2)on1 [Example 53, hydrochloride] stands at > 6.00

For reference, reported pIC50 for COCC(C)Oc1cc(Nc2ccnc(NCc3cc(C)no3)n2)n[nH]1 (stereo not shown) [Example 75] stands at > 5.00

For reference, reported pIC50 for Cc1cc(CNc2nccc(Nc3cc(CCc4cc(O)cc(O)c4)[nH]n3)n2)on1 [Example 43] stands at > 6.70

For reference, reported pIC50 for CNC(=O)c1cc(CNc2nccc(Nc3cc(CCc4cccc(OC)c4)n[nH]3)n2)on1 [Example 64] stands at > 6.00

For reference, reported pIC50 for Cc1cc(CNc2nccc(Nc3cc(OCc4cccc(C#N)c4)[nH]n3)n2)on1 [Example 92, hydrochloride] stands at > 5.00

For reference, reported pIC50 for c1ccc(COc2cc(Nc3ccnc(NCc4cc(C5CC5)no4)n3)n[nH]2)cc1 [Example 103] stands at > 6.70

For reference, reported pIC50 for COc1ccc(CCc2cc(Nc3ccnc(NCc4cc(-c5ncccn5)no4)n3)n[nH]2)cc1 [Example 32] stands at > 6.00

For reference, reported pIC50 for CC(C)Oc1cc(Nc2ccnc(NCc3cc(C4CCC4)no3)n2)n[nH]1 [Example 102] stands at > 6.70

For reference, reported pIC50 for CC(C)Oc1cc(Nc2ccnc(NCc3cc(-c4cncnc4)no3)n2)n[nH]1 [Example 81] stands at > 5.00

For reference, reported pIC50 for Cc1cc(Nc2cc(OC(C)C)[nH]n2)nc(NCc2cc(C3CC3)no2)n1 [Example 69] stands at > 6.70

For reference, reported pIC50 for Cc1cc(CNc2nccc(Nc3cc(COc4ccccc4)[nH]n3)n2)on1 [Example 34] stands at > 5.00

For reference, reported pIC50 for Cc1cc(CNc2nccc(Nc3cc(CCc4ccc(OCc5ccccc5)cc4)[nH]n3)n2)on1 [Example 37] stands at > 4.52

For reference, reported pIC50 for CC(C)Oc1cc(Nc2ccnc(NCc3cc(C4CC4)no3)n2)n[nH]1 [Example 67] stands at > 6.70

For reference, reported pIC50 for CC(C)Oc1cc(Nc2ccnc(NCc3cc(C(N)=O)no3)n2)[nH]n1 [Example 78] stands at > 6.70
